# Test system: MS2 coat protein
# protocol-text: apparent KD of MS2 coat protein; designed switch direction (-1 OFF switch, 1 ON switch): 1; higher = weaker reporter binding
# measurement-parameters: input ligand: FMN 200 uM
measured-property: apparent KD of MS2 coat protein (nM)
Number only, in nM; omit the unit.

Answered cases to consult:
INSERT INTO measurements (item_sequence, measured_result) VALUES
  ('GUGGUCAGACAUGAGGAUCACCCAUGUGGAAUAAAUAACAGACAGGAUAUGUAAUAUAAAAUAUAACAGAAGGGUCGAUUGGUG (Eterna round: R96, puzzle: Same State NG 3)', 79.6),
  ('GAGCCAGUCCGAGGAUAUUCAUAUUAAAACAUGAGGAUCACCCAUGUAGGCUCAGAAGAGCCUUGGGAGAAGGCGGACUGGCUC [Xeonanisa] (Eterna round: R96, puzzle: Same State NG 2)', 23.3),
  ('ACAUGAGAGAAAGGAUAUCUUGUACCUACAUGUGACAUGAGGAUCACCCAUGUGGUAAGUAUGACGGAGAAGGUUCAGAUAUGU [Equivalance 72 - Jieux - Same State NG 2] (Eterna round: R96, puzzle: Same State NG 2)', 77.1),
  ('GCUGCAAUAAACGCCUACAUGAGGAUCACCCAUGUAUGUAGGCAGGAUAUCGUAUGCAAAGCAUACGAGAAGGGCCGUAGUAGC [Mat - Same State NG 3 - JL Mod - D36] (Eterna round: R96, puzzle: Same State NG 3)', 26.4),
  ('CAAGAAAACGCAGGAUAUACUCGGGCUACCCGAGUAGAAGGGUGACACAUGAGGAUCACCCAUGUACAUAGCAUUAGCUAUGGA [Onedve] (Eterna round: R96, puzzle: Same State NG 1)', 2270),
  ('CGGGAAAUCGUAGGAUAUCUAGGAUAUGAACGAGGAUCACCCGAGCAGCAUCAGCGCAUCAGAGGAGAGAAGGACGAUGAUGCG [pwkr ssNG2 2F5 2FMN.17] (Eterna round: R96, puzzle: Same State NG 2)', 327);

input: Give its apparent KD of MS2 coat protein value. Item: ACAUGAGACCGAGGAUAUAUUGUACCUACAUGUGACAUGAGGAUCACCCAUGUGGUAAGUAUGACAUAGAAGGCGGAGAUAUGU [Equivalance 92 - Jieux - Same State NG 2] (Eterna round: R96, puzzle: Same State NG 2)
output: 19.6

input: Recorded apparent KD of MS2 coat protein of AAAAUAAAAUAAAAGGAUAUAAAAUAAAAUACAUGAGGAUCACCCAUGUAUAAAAUAAAAAAAUAAAAGAAGGAAUAAAAAUAAA [SS2 504: MS2 4] (Eterna round: R96, puzzle: Same State 2) , please.
output: 28.3

input: Any idea what apparent KD of MS2 coat protein was measured for UUAAUGAUGUUAGGAUAUACAUGAGGAAUCCUCGUAGAAGGAACAUGACAUGAGGAUCACCCAUGUAGCGCUCCGUAGAGCGCA [JL SSNG1 1.18] (Eterna round: R96, puzzle: Same State NG 1) ?
output: 2460

====

# System: MS2 coat protein
# protocol-text: apparent KD of MS2 coat protein; higher = weaker reporter binding
# measurement-parameters: Eterna round: R107; input ligand: theophylline 2 mM
// values below are reported apparent KD of MS2 coat protein

INSERT INTO measurements (item_sequence, measured_property, measured_result) VALUES
  ('UGUGUAAUUGUCUGGUAGAAUUAUUUGUUUCGAGGACCGGUACGGCCGCCACUCGAUAUUUACAUGAGGAUCACCCAUGUUAGCU [JR_SSTryptoA_Sub004]', 'apparent KD of MS2 coat protein', '0.0149 µM'),
  ('UACAUGAGGAUCACCCAUGUCGGCAGGGAAGGAGCGGCAAUAAAGCCAGGUAGGUCGCCCAUUAGUAUUUAUAAAUAAAUAUCCA [Same State - Arginine A]', 'apparent KD of MS2 coat protein', '0.0759 µM'),
  ('AAUCAUAGGGCGGCCGCCACUAAACAUGAGGAUCACCCAUGUCUCGAGGGCUUGCGUUUGGGAAGUAGGACCGGGCCAAUAGUAA [Tryp B Ex Mod2]', 'apparent KD of MS2 coat protein', '0.017 µM'),
  ('UGGUGUAGGGUAAAUAGGAUUAGUACAGAAGGAGCGCGAAUAAACGCAGGUAGGUCGCUGGAAUAACAUGAGGAUCACCCAUGUC [Same State Arginine A GF 26]', 'apparent KD of MS2 coat protein', '0.0262 µM'),
  ('AUGCCUAGUGGAAGGAGCGAGGGUCUUCCCAACAUGAGGAUCACCCAUGUUCUUUUACACCCUCAGGUAGGUCGCCAUUGGGACA [Tilexete]', 'apparent KD of MS2 coat protein', '0.0476 µM');

Note: attention shifts to another entry.
input: Look at this sequence and give its reported apparent KD of MS2 coat protein. AGAUGUAGCGGAAGGAGCGUCAUGAGGAUCACCCAUGACUCCCGUUGUGGGAGUUCCUUAGGUCAGGUAGGUCGCCGUUACGUCA [Omei Arg B SS B v5]
output: 0.597 µM

====

# Test system: MS2 coat protein
# protocol-text: apparent KD of MS2 coat protein; designed switch direction (-1 OFF switch, 1 ON switch): -1; higher = weaker reporter binding
# measurement-parameters: input ligand: none
apparent KD of MS2 coat protein by entry:
Report only the number, with the unit µM understood.

INSERT INTO results (item_sequence, measured_property, unit_of_measurement, measured_result) VALUES
  ('AAGAAGAUCAAAGGAUAUGGAGCUGAAACGGAGCUAGAAGGUUGUCUAGUUUAACAUGAGGAUCACCCAUGUAGGUACCUCUAA [AK ExNG1-V2-1] (Eterna round: R96, puzzle: Exclusion NG 1)', 'apparent KD of MS2 coat protein', 'µM', 0.713),
  ('GGUAUACAUGAGGAUCACCCAUGUCAGGAUAUGGAAACAUAUGCCGAAAGGCAUAUGGCCAGAAGGGACAAUAG [AK-MS2ROC-r4-exclusion1-5.1] (Eterna round: R97, puzzle: Exclusion 1)', 'apparent KD of MS2 coat protein', 'µM', 0.0775),
  ('UUUCAUCAUGUAGGAUAUGCGUGGCGAAGCUAUGCAGAAGGACAUGAGGAUCACCCAUGUUCUAGCGUCUGCGUACAGAUGCUA [JL ENG1 1.35] (Eterna round: R96, puzzle: Exclusion NG 1)', 'apparent KD of MS2 coat protein', 'µM', 0.0524);

input: Any idea what its apparent KD of MS2 coat protein is? The sequence is AGUAUGUCAGGAUAUCUCGGGUAGCCCACAACGACUACCGAAGAGAAGGGACAUGAGGAUCACCCAUGUACCAU [EX4 B.15] (Eterna round: R97, puzzle: Exclusion 4)
output: 0.0343

input: Reported apparent KD of MS2 coat protein for GUCAGACGAGGAUAUAAACGAUAUAACAUGAGGAUCACCCAUGUACGAUCGAAUGAUCGUUUAGAAGGCGUCUGAC [E5/10-A4] (Eterna round: R97, puzzle: Exclusion 5) : what is it?
output: 0.0167

====

# System: MS2 coat protein
# protocol-text: apparent KD of MS2 coat protein; designed switch direction (-1 OFF switch, 1 ON switch): 1; higher = weaker reporter binding
# measurement-parameters: Eterna round: R98; input ligand: FMN 200 uM
measured-property: apparent KD of MS2 coat protein (nM)
Express your answer in nM, writing the number without its unit.

INSERT INTO results (item_sequence, unit_of_measurement, measured_result) VALUES
  ('GUAGCUAUCGGAGGAUAUUCAUAGCGGAAACGCACAUGAGGAUCACCCAUGUGGCGAAAGCCUUGGGAGAAGGCCGAUAGCUAC [jl-sng2-2.30 Eli mod]', 'nM', 17.7),
  ('GAUUACUUCACAGGAUAUAAAAUAAAGCAGAUUUUAGAAGGGUGAGCCUCGUCGACCGCGACAUGAGGAUCACCCAUGUUGUGU [Bitetiqu]', 'nM', 50.8);

input: Request body: readout apparent KD of MS2 coat protein, system MS2 coat protein, query GCGGAGGGCACAGGAUAUCGUCCUUAGUUGGUACGAGAAGGGUGGCGCUGCCACAUGAGGAUCACCCAUGUGCCCAAACUAUAG [Eresgeises] . Return the value.
output: 639

====

# Test system: MS2 coat protein
# protocol-text: apparent KD of MS2 coat protein; designed switch direction (-1 OFF switch, 1 ON switch): -1; higher = weaker reporter binding
# measurement-parameters: Eterna round: R95; input ligand: none
measured-property: apparent KD of MS2 coat protein (nM)
Value expressed in nM; do not type the unit.

input: Please report the recorded apparent KD of MS2 coat protein for UAAUACAAGCAAAGAUCCUACAUGAGGAUCACCCAUGUGUUCGUCUUAUAAAGUACUAUCACGAAAGUGAUAGUACA [Mat - Sensor v3 - turn-off var 1 - Eli Mod - D79] (puzzle: Sensor v3, turn-off variant 1) .
output: 110

input: Could you share which apparent KD of MS2 coat protein value was measured for AAUACAAGCAAGAUCCUAAACAUGAGGAUCACCCAUGUGCUCGUCUUGUAAAGUACUAUCACGAAAGUGAUAGUACA [Sensor 3, v1 - 62] (puzzle: Sensor v3, turn-off variant 1) ?
output: 32.7

Data origin: the supplement of paper PMC9170038
